biological target: Prostaglandin E2 receptor EP4 subtype (Homo sapiens, UniProt P35408)
Sequence (P35408 whole entry): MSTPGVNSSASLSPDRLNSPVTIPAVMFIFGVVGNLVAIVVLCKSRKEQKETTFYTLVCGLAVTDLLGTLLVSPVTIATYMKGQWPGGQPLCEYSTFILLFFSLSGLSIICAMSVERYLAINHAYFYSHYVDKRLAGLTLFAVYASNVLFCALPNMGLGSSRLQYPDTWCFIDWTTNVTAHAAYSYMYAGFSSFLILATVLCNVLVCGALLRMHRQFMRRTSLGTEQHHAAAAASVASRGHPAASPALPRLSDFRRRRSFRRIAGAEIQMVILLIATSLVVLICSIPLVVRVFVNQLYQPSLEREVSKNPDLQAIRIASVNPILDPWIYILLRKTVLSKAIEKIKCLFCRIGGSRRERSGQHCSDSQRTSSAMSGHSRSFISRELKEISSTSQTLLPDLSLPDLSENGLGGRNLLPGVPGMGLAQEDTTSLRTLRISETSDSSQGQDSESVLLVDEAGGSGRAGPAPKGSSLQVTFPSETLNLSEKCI
Outcome measure: IC50
The number alone won't do; follow it with the unit.

stdin: Name the recorded IC50 for Cc1c(C(=O)c2ccc(Cl)cc2)c2ccc(OC(F)(F)F)cc2n1Cc1cccc(O[C@H](C)C(=O)O)c1 .
stdout: 3.7 µM

* * *

molecular target: Beta-1 adrenergic receptor (Homo sapiens)
Sequence (P08588 whole entry): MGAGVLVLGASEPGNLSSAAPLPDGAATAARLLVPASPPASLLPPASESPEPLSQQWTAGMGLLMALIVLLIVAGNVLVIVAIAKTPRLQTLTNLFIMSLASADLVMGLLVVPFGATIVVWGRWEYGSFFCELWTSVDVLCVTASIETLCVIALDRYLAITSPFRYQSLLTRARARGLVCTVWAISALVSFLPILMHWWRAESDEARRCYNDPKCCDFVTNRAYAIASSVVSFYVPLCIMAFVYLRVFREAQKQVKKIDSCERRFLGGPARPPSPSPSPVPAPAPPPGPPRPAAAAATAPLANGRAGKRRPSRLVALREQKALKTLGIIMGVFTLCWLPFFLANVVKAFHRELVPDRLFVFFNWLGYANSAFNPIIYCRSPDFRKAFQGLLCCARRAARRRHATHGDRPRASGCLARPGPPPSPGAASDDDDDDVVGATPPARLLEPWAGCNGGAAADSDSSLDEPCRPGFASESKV
Outcome measure: pIC50
API: returns pIC50 as number; meaning -log10 of concentration in mol/L.

stdin: Name the recorded pIC50 for Cc1c(C(=O)c2ccc(Cl)cc2)c2ccc(OC(F)(F)F)cc2n1Cc1cccc(O[C@H](C)C(=O)O)c1 .
stdout: 5.39

* * *

I'd be grateful if you could share measured bioavailability for these entries.
assay: Bioavailability in Sprague-Dawley rat at 0.5 mg, iv and 2.0 mg, po; format: ADME, organism-based; details: in vivo
Entry rule: numbers only, all in %.

stdin: Name the recorded bioavailability for Cc1c(Oc2ccc(Cl)cc2)c2ccc(Cl)nc2n1Cc1ccc(Cl)c(O[C@@H](C)C(=O)O)c1 .
stdout: 56

stdin: Try this compound too: COc1ccc(C(=O)c2c(C)n(Cc3cc(O[C@@H](C)C(=O)O)ccc3F)c3nc(C)ccc23)cc1
stdout: 105

stdin: Try this compound too: Cc1c(Oc2ccc(Cl)cc2)c2cccnc2n1Cc1cc(O[C@@H](C)C(=O)O)ccc1Cl
stdout: 61

stdin: Try this compound too: Cc1c(Oc2ccc(Cl)cc2)c2ccc(C(F)(F)F)nc2n1Cc1ccc(Cl)c(O[C@@H](C)C(=O)O)c1
stdout: 61

* * *

Biological target: Alpha-2B adrenergic receptor (Homo sapiens)
Sequence (P18089 whole entry): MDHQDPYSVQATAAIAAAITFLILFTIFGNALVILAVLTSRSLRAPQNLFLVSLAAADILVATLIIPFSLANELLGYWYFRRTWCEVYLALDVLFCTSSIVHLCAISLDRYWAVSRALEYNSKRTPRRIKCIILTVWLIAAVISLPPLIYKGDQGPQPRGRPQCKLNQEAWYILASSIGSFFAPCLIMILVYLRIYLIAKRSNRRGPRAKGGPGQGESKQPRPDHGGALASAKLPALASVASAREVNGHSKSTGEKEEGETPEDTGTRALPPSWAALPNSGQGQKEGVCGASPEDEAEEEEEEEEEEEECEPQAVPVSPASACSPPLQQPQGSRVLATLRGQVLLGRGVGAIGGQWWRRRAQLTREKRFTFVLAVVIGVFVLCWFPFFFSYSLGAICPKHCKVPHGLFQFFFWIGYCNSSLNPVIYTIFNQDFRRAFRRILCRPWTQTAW
Outcome measure: pIC50
API: returns pIC50 as number; meaning -log10 of concentration in mol/L.

stdin: I'm curious: which pIC50 was measured for Cc1c(C(=O)c2ccc(Cl)cc2)c2ccc(OC(F)(F)F)cc2n1Cc1cccc(O[C@H](C)C(=O)O)c1 tested on Alpha-2B adrenergic receptor (Homo sapiens)?
stdout: 6.11

* * *

Target: Alpha-2A adrenergic receptor (Homo sapiens)
Sequence (P08913 whole entry): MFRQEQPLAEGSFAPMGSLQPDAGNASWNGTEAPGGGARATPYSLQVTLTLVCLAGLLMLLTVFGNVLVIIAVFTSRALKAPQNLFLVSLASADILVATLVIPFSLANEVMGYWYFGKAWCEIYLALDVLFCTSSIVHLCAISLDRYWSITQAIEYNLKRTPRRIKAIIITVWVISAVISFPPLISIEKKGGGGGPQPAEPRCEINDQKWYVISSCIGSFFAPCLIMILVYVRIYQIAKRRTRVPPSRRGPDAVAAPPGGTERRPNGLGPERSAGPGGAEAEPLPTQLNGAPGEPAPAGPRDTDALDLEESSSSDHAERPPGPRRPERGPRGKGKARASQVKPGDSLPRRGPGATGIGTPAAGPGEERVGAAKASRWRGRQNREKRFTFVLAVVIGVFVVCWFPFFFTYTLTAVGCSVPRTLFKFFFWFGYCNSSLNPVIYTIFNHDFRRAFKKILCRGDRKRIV
Outcome measure: pIC50
API: returns pIC50 as number; meaning -log10 of concentration in mol/L.

stdin: Name the recorded pIC50 for Cc1c(C(=O)c2ccc(Cl)cc2)c2ccc(OC(F)(F)F)cc2n1Cc1cccc(O[C@H](C)C(=O)O)c1 .
stdout: 5.78
